Below, each of the molecules is paired with its reported GE-HTS value.
System: OXPHOS gene expression
Format: cell-based, mouse
Experimental setup: 20 μM; composite Z-score vs DMSO
I'd appreciate a reply containing only the number, no unit.

# Molecule, Reported value
measured = [
    ("Cc1cc(N)c2ccccc2[n+]1CCCCCCCCCC[n+]1c(C)cc(N)c2ccccc21", "−1.733"),
    ("CCOC(=O)CCC(=O)O[C@H]1[C@H](O[C@@H]2[C@@H](C)[C@H](O[C@H]3C[C@@](C)(OC)[C@@H](O)[C@H](C)O3)[C@@H](C)C(=O)O[C@H](CC)[C@@](C)(O)[C@H](O)[C@@H](C)C(=O)[C@H](C)C[C@@]2(C)O)O[C@H](C)C[C@@H]1N(C)C [erythromycin ethylsuccinate]", "−0.390"),
    ("ClC1=C(Cl)C2(Cl)C3C4CC(C5OC45)C3C1(Cl)C2(Cl)Cl (stereo not shown)", "−0.680"),
    ("COc1cc2ccc(=O)oc2cc1O", 0.543),
    ("OC(c1cc(C(F)(F)F)nc2c(C(F)(F)F)cccc12)C1CCCCN1 (stereo not shown)", 0.362),
]

Note: attention shifts to another entry.
Sample CC(=O)CCCCn1c(=O)c2c(ncn2C)n(C)c1=O — what was its GE-HTS?
0.062

###

Reported GE-HTS by item:
Test system: OXPHOS gene expression
Format: cell-based, mouse
Experimental setup: normalized composite Z-score vs mock-treated (DMSO) wells; Conc 20 μM
I'd appreciate a reply containing only the number, no unit.

# Compound, Attribute measured, Reported value
rows = [
    ("COC(=O)c1c(OC)cc2c(c1C)Oc1c(Cl)c(O)c(Cl)c(C)c1C(=O)O2", "GE-HTS", "−0.512"),
    ("COc1ccc(C(=O)c2ccc(O)cc2)c(O)c1O [2,3,4′-trihydroxy-4-methoxybenzophenone]", "GE-HTS", "−1.557"),
    ("COc1ccc2c(=O)c(OC)c(-c3ccccc3)oc2c1", "GE-HTS", "−0.945"),
]

Now for another entry.
Which GE-HTS value belongs to C=C[C@@](C)(O)CCC1C(=C)CCC2[C@@](C)(CO)CCC[C@]12C (stereo partly drawn) [epi(13)torulosol] ?
0.491

###

System: cellular dehydrogenase activity
Returns: string. Value is MET if measured MTT is below -1, and NOT MET if it is greater than or equal to it.

// known answers, use as guide
# Compound, Qualitative label
records = [
    ("Cc1c(N(C)CS(=O)(=O)[O-])c(=O)n(-c2ccccc2)n1C.[Na+] [dipyrone]", "MET"),
    ("Oc1cccc2cccnc12 [oxyquinoline]", "NOT MET"),
    ("CC(=O)N(CC(O)CO)c1c(I)c(C(=O)NCC(O)CO)c(I)c(C(=O)NCC(O)CO)c1I (stereo not shown) [iohexol]", "MET"),
    ("COc1cc2ccc(=O)oc2cc1O [scopoletin]", "NOT MET"),
    ("COc1ccc2cc([C@@H](C)C(=O)[O-])ccc2c1.[Na+] [(R)-naproxen sodium salt]", "NOT MET"),
    ("CCCC(C(=O)OCCN(CC)CC)(c1ccccc1)c1ccccc1 [proadifen]", "MET"),
    ("CC(=O)O[C@H]1CC[C@@]2(C)C(=CC[C@@H]3[C@@H]2CC[C@]2(C)C(=O)CC[C@@H]32)C1 [praesterone acetate]", "NOT MET"),
    ("O=C(O)CCCOc1ccc(Cl)cc1Cl [2,4-dichlorophenoxybutyric acid]", "MET"),
    ("C[C@]12CC[C@H]3[C@@H](CC[C@]4(O)C[C@@H](O)CC[C@]34C=O)[C@@]1(O)CC[C@@H]2C1=CC(=O)OC1 [strophanthidin]", "NOT MET"),
    ("N[C@@H](C(=O)N[C@@H]1C(=O)N2C(C(=O)O)=C(Cl)CC[C@H]12)c1ccccc1 [loracarbef]", "NOT MET"),
]

Field: below-cutoff. Rule: recorded MTT strictly less than -1. Subject: O=C1C(O)=C(O)C(=O)C(O)=C1O [tetrahydroxy-1,4-quinone]
MET

Can you check O=C(CCBr)N1CCN(C(=O)CCBr)CC1 [pipobroman] next?
MET
